# testMethodNotes: Pharmacokinetics assay in mice
# Type: in vivo
# conditionDetails: mouse, po; C57 mice (female), intragastric, 2 mg/kg, plasma; read-out: Plasma concentration Cmax
Please provide measured Cmax for the entries that follow.
Answers are plain numbers, in ng/mL.

{"sampleSmiles": "Cc1ccnc2ccc(-c3nnc(N)nc3-c3ccccc3F)cc12", "unitTag": "ng/mL", "Cmax": 265}
{"sampleSmiles": "CCc1ccnc2ccc(-c3nnc(N)nc3-c3ccc(F)cc3)cc12", "unitTag": "ng/mL", "Cmax": 720}

Then this molecule:
**Q:** Report Cmax for `Nc1nnc(-c2cc(F)c3ncccc3c2)c(-c2ccccc2)n1` please.
**A:** 441
